Would you mind telling me the reported Ki of each entry?
- systemTested: ML-IAP (Homo sapiens (Human), UniProt Q96CA5)
- Sequence (Q96CA5 whole entry, species assumed): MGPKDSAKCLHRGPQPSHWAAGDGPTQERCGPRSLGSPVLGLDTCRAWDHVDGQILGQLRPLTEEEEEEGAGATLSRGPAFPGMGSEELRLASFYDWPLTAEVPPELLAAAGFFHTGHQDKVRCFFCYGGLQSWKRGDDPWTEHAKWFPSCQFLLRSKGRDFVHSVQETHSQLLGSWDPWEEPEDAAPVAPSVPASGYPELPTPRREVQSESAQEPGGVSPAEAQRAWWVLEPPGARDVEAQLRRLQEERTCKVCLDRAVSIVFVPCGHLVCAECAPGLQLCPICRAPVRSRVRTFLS
- experimentalDetails: ML-IAP Ki
- Assay type: binding
- conditionDescription: Table B-1

Study these solved cases before continuing.
INSERT INTO assay_data (molecule, reading) VALUES
  ('CN[C@@H](C)C(=O)N[C@H]1CCO[C@H]2CC[C@@H](C(=O)N[C@@H]3CCOc4ccccc43)N2C1=O [Product 32]', '< 25 µM'),
  ('CN[C@@H](C)C(=O)N[C@H]1CCS[C@H]2CC[C@H](C(=O)N[C@@H]3CCCc4ccccc43)N2C1=O [Product 36]', '< 25 µM');

Query :: Tell me the measured Ki of CN[C@@H](C)C(=O)N[C@H]1CCS[C@H]2CC(C)(C)C(C(=O)N[C@@H]3CCCc4ccccc43)N2C1=O (stereo partly drawn) [Product 35] , please.
Result :: < 25 µM

* * *

- systemTested: XIAP BIR1/2 (Homo sapiens, UniProt P98170)
- Sequence (P98170 whole entry, looked up): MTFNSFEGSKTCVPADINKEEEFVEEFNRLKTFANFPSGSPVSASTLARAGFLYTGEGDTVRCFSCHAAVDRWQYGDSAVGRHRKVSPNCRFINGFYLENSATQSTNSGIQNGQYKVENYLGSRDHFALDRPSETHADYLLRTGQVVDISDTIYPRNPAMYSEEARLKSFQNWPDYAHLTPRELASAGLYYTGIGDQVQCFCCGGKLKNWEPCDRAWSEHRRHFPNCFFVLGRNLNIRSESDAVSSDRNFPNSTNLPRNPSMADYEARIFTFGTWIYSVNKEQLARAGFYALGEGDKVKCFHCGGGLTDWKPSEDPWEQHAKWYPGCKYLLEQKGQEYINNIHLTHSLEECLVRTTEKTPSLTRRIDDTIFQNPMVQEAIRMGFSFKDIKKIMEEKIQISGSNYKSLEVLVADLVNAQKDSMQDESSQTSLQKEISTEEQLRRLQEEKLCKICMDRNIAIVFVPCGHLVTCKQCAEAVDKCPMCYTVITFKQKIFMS
- experimentalDetails: XIAP BIR1/2 Ki
- Assay type: binding
- conditionDescription: Table B-1
recordedEndpoint: Ki

INSERT INTO measurements (compound, recordedendpoint, reading) VALUES
  ('CN[C@@H](C)C(=O)N[C@@H]1C(=O)N2C(C(=O)NC3CCCc4ccccc43)CC[C@@H]2O[C@@H]1C (stereo partly shown)', 'Ki', '> 50 µM'),
  ('CN[C@@H](C)C(=O)N[C@H]1CO[C@H]2CCC(C(=O)NC3CCCc4ccccc43)N2C1=O (stereo partly shown)', 'Ki', '> 50 µM'),
  ('CN[C@@H](C)C(=O)NC1CCO[C@H]2CC[C@@H](C(=O)n3ccc4ccccc43)N2C1=O (stereo partly shown)', 'Ki', '> 50 µM');

Give one value of Ki per listed compound.
1. CN[C@@H](C)C(=O)N[C@H]1CCN[C@H]2CCC(C(=O)N[C@@H]3CCCc4ccccc43)N2C1=O (stereo partly shown)
2. CN[C@@H](C)C(=O)N[C@H]1CCO[C@H]2CCC(C(=O)NC(c3ccccc3)c3ccccc3)N2C1=O (stereo partly shown)

Result ::
["> 50 µM", "> 50 µM"]

Give one value of Ki per listed compound.
1. CN[C@@H](C)C(=O)N[C@H]1Cc2c([nH]c3ccccc23)[C@H]2CCC(C(=O)N[C@@H]3CCCc4ccccc43)N2C1=O (stereo partly shown) [Product 31]
2. CN[C@@H](C)C(=O)N[C@H]1CCO[C@H]2CC(C)(C)C(C(=O)Nc3ccccc3SSc3ccccc3NC(=O)C3N4C(=O)[C@@H](NC(=O)[C@H](C)NC)CCO[C@H]4CC3(C)C)N2C1=O (stereo partly shown)
3. CN[C@@H](C)C(=O)N[C@H]1CCO[C@H]2CC3(CC=CC3)C(C(=O)N[C@@H]3CCCc4ccccc43)N2C1=O (stereo partly shown)
4. CN[C@@H](C)C(=O)N[C@H]1CCS[C@H]2CC[C@H](C(=O)N[C@@H]3CCCc4ccccc43)N2C1=O
5. CN[C@@H](C)C(=O)N[C@H]1CCO[C@H]2CC3(CCCC3)C(C(=O)N[C@@H]3CCCc4ccccc43)N2C1=O (stereo partly shown)
6. CN[C@@H](C)C(=O)N[C@H]1CCO[C@H]2CC[C@@H](C(=O)N[C@@H]3CCCc4ccccc43)N2C1=O

Result ::
1. < 25 µM
2. < 25 µM
3. < 25 µM
4. > 50 µM
5. < 25 µM
6. > 50 µM

Give one value of Ki per listed compound.
1. CN[C@@H](C)C(=O)N[C@H]1CCS[C@H]2CC(C)(C)C(C(=O)N[C@@H]3CCCc4ccccc43)N2C1=O (stereo partly shown)
2. CN[C@@H](C)C(=O)N[C@H]1CCO[C@H]2CC[C@H](C(=O)N[C@@H]3CCOc4ccccc43)N2C1=O

Result ::
["< 25 µM", "> 50 µM"]

* * *

- systemTested: XIAP BIR1/2 (Homo sapiens, UniProt P98170)
- experimentalDetails: XIAP BIR1/2 Ki
- Type: binding
- conditionDescription: Table B-1
recordedEndpoint: Ki

INSERT INTO results (compound, recordedendpoint, reading) VALUES
  ('CN[C@@H](C)C(=O)N[C@H]1CCO[C@H]2CC(C)(C)[C@@H](C(=O)N[C@@H]3CCCc4ccccc43)N2C1=O', 'Ki', '< 25 µM');

Give one value of Ki per listed compound.
1. CN[C@@H](C)C(=O)NC1CCO[C@H]2CCC(C(=O)Nc3cccc4ccccc34)N2C1=O (stereo partly shown)
2. CN[C@@H](C)C(=O)N[C@H]1CCO[C@H]2CC[C@@H](C(=O)N[C@@H]3CCOc4ccccc43)N2C1=O

Result ::
1: < 25 µM; 2: > 50 µM

Give one value of Ki per listed compound.
1. CN[C@@H](C)C(=O)N[C@H]1CO[C@H]2CCC(C(=O)NCc3ccccc3)N2C1=O (stereo partly shown)
2. CN[C@@H](C)C(=O)N[C@@H]1C(=O)N2C(C(=O)NC(c3ccccc3)c3ccccc3)CC[C@@H]2O[C@@H]1C (stereo partly shown)
3. CN[C@@H](C)C(=O)N[C@H]1CCCNC2CCC(C(=O)Nc3cccc4ccccc34)N2C1=O (stereo partly shown)

Result ::
1. > 50 µM
2. > 50 µM
3. < 25 µM

Query :: Which Ki is reported with XIAP BIR1/2 (Homo sapiens, UniProt P98170) for this entry: CN[C@@H](C)C(=O)N[C@H]1CCS[C@H]2CCCC(C(=O)N[C@@H]3CCCc4ccccc43)N2C1=O (stereo partly shown) ?
Result :: < 25 µM

* * *

- systemTested: XIAP BIR3 (Homo sapiens (Human), UniProt P98170)
- Sequence (P98170 241-356): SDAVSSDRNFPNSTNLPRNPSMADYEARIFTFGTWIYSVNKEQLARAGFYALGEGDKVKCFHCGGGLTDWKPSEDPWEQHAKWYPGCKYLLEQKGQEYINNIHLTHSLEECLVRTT
- experimentalDetails: XIAP BIR3 Ki
- Format: binding
- conditionDescription: Table B-1
pKi: −log10 of the molar value.
recordedEndpoint: pKi

Study these solved cases before continuing.
INSERT INTO assay_data (molecule, recordedendpoint, reading) VALUES
  ('CN[C@@H](C)C(=O)N[C@H]1CCO[C@H]2CCC(C(=O)NC(c3ccccc3)c3ccccc3)N2C1=O (some centres unmarked) [Product 14]', 'pKi', '> 4.60'),
  ('CN[C@@H](C)C(=O)N[C@H]1CCS(=O)(=O)[C@H]2CC[C@@H](C(=O)N[C@@H]3CCCc4ccccc43)N2C1=O [Product 37]', 'pKi', '> 4.60'),
  ('CN[C@@H](C)C(=O)N[C@H]1CCO[C@H]2CCC(C(=O)N[C@@H]3CCCc4ccccc43)N2C1=O (some centres unmarked) [Product 12]', 'pKi', '> 4.60'),
  ('CN[C@@H](C)C(=O)N[C@H]1CCO[C@H]2CC[C@@H](C(=O)N[C@@H]3CCOc4ccccc43)N2C1=O [Product 32]', 'pKi', '> 4.60'),
  ('CN[C@@H](C)C(=O)N[C@@H]1C(=O)N2C(C(=O)NC3CCCc4ccccc43)CC[C@@H]2O[C@@H]1C (some centres unmarked) [Product 10]', 'pKi', '> 4.60'),
  ('CN[C@@H](C)C(=O)N[C@H]1Cc2ccc(O)cc2[C@H]2CC(C)(C)C(C(=O)N[C@@H]3CCCc4ccccc43)N2C1=O (some centres unmarked) [Product 45]', 'pKi', '> 4.60'),
  ('CN[C@@H](C)C(=O)N[C@H]1CCO[C@H]2CC(C)(C)C(C(=O)Nc3ccccc3SSc3ccccc3NC(=O)C3N4C(=O)[C@@H](NC(=O)[C@H](C)NC)CCO[C@H]4CC3(C)C)N2C1=O (some centres unmarked) [Product 40]', 'pKi', '> 4.60'),
  ('CN[C@@H](C)C(=O)N[C@H]1CCO[C@H]2CC3(CCCC3)C(C(=O)N[C@@H]3CCCc4ccccc43)N2C1=O (some centres unmarked) [Product 43]', 'pKi', '> 4.60'),
  ('CN[C@@H](C)C(=O)N[C@H]1CCS[C@H]2CC(C)(C)C(C(=O)N[C@@H]3CCCc4ccccc43)N2C1=O (some centres unmarked) [Product 35]', 'pKi', '> 4.60'),
  ('CN[C@@H](C)C(=O)N[C@H]1CCCN(C(C)=O)C2CCC(C(=O)N[C@@H]3CCCc4ccccc43)N2C1=O (some centres unmarked) [Product 20]', 'pKi', '> 4.60');

Give one value of pKi per listed molecule.
1. CN[C@@H](C)C(=O)N[C@H]1CCN[C@H]2CCC(C(=O)N[C@@H]3CCCc4ccccc43)N2C1=O (some centres unmarked) [Product 29]
2. CN[C@@H](C)C(=O)NC1CCO[C@H]2CC[C@@H](C(=O)n3ccc4ccccc43)N2C1=O (some centres unmarked) [Product 23]
3. CN[C@@H](C)C(=O)N[C@H]1CCCNC2CCC(C(=O)N[C@@H]3CCCc4ccccc43)N2C1=O (some centres unmarked) [Product 16]
4. CN[C@@H](C)C(=O)N[C@H]1CCCNC2CCC(C(=O)Nc3cccc4ccccc34)N2C1=O (some centres unmarked) [Product 17]
5. CN[C@@H](C)C(=O)N[C@H]1Cc2c([nH]c3ccccc23)[C@H]2CCC(C(=O)N[C@@H]3CCCc4ccccc43)N2C1=O (some centres unmarked) [Product 30]
6. CN[C@@H](C)C(=O)N[C@H]1CCS[C@H]2CCCC(C(=O)N[C@@H]3CCCc4ccccc43)N2C1=O (some centres unmarked) [Product 41]
7. CN[C@@H](C)C(=O)N[C@H]1Cc2c([nH]c3ccccc23)[C@H]2CCC(C(=O)N[C@@H]3CCCc4ccccc43)N2C1=O (some centres unmarked) [Product 31]
8. CN[C@@H](C)C(=O)N[C@H]1CCS[C@H]2CC[C@H](C(=O)N[C@@H]3CCCc4ccccc43)N2C1=O [Product 36]

Result ::
["< 4.30", "4.30 to 4.60", "> 4.60", "> 4.60", "4.30 to 4.60", "> 4.60", "> 4.60", "> 4.60"]

Give one value of pKi per listed molecule.
1. CN[C@@H](C)C(=O)N[C@H]1CCO[C@H]2CC3(CC=CC3)C(C(=O)N[C@@H]3CCCc4ccccc43)N2C1=O (some centres unmarked) [Product 42]
2. CN[C@@H](C)C(=O)N[C@H]1CO[C@H]2CCC(C(=O)NC3CCCc4ccccc43)N2C1=O (some centres unmarked) [Product 9]
3. CNC(C)C(=O)N[C@H]1CO[C@H]2CCC(C(=O)Nc3ccc(OC)cc3)N2C1=O (some centres unmarked) [Product 4]

Result ::
1. > 4.60
2. > 4.60
3. 4.30 to 4.60

Give one value of pKi per listed molecule.
1. CN[C@@H](C)C(=O)NC1CCO[C@H]2CCC(C(=O)Nc3cccc4ccccc34)N2C1=O (some centres unmarked) [Product 13]
2. CN[C@@H](C)C(=O)N[C@H]1CCO[C@H]2CC[C@@H](C(=O)Nc3cccc4ccccc34)N2C1=O [Product 25]
3. CN[C@@H](C)C(=O)N[C@H]1CCO[C@H]2CC(C)(C)[C@@H](C(=O)N[C@@H]3CCCc4ccccc43)N2C1=O [Product 26]

Result ::
["> 4.60", "> 4.60", "> 4.60"]

Give one value of pKi per listed molecule.
1. CN[C@@H](C)C(=O)N[C@H]1CCS[C@H]2CCC(C(=O)N[C@@H]3CCCc4ccccc43)N2C1=O (some centres unmarked) [Product 24]
2. CN[C@@H](C)C(=O)NC1CCO[C@H]2CC[C@H](C(=O)n3ccc4ccccc43)N2C1=O (some centres unmarked) [Product 22]

Result ::
1: > 4.60; 2: 4.30 to 4.60
